Origin of the recorded values: patent US20250237662A1

target: humanized development candidate monoclonal antibody IgG4 (hIgG4); assay: SPR (Biacore T200), mAb captured by anti-rabbit mAb on CM5, antigen 80-0 nM, 1:1 fit
quantityMeasured: kon (M⁻¹ s⁻¹)
Numbers only; they are read as M⁻¹ s⁻¹.

// solved cases for kon follow
- binder: "rabbit anti-human IgG monoclonal antibody clone 2C5 (antibody, V domains shown) VH: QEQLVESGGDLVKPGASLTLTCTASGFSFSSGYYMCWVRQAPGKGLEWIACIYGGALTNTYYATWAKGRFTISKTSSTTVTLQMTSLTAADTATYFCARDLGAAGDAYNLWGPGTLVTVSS VL: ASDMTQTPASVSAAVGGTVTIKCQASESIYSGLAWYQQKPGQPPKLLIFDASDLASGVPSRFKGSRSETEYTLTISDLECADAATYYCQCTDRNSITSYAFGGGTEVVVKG"
  reported: 135000
- binder: "rabbit anti-human IgG monoclonal antibody clone 9E6 (antibody, V domains shown) VH: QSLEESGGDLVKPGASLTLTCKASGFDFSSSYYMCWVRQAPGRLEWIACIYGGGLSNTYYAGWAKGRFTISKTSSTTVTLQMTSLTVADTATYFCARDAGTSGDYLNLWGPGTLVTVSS VL: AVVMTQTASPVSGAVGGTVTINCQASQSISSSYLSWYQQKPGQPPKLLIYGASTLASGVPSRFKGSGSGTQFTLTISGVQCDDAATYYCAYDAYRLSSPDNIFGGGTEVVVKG"
  reported: 137000
- binder: "rabbit anti-human IgG monoclonal antibody clone 16F5 (antibody, V domains shown) VH: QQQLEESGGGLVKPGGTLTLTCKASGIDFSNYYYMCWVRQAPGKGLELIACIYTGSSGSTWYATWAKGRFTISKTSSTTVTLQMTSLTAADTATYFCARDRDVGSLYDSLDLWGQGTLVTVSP VL: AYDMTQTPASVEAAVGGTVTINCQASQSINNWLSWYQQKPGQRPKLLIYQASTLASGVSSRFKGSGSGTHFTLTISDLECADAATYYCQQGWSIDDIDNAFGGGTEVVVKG"
  reported: 157000

// query kon value for entry rabbit anti-human IgG monoclonal antibody clone 11G5 (antibody, V domains shown) VH: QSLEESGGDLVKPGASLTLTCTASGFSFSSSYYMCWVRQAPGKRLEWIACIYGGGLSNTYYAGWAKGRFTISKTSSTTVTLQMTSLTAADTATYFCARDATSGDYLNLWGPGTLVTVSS VL: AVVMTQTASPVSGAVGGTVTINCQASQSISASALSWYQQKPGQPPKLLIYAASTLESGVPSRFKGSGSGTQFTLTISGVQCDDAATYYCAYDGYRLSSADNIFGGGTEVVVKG
135000
